Taken from patent US20090215752A1.

Assignment: determine reported pIC50 for the given molecules.
# SYSTEM: PDE2 (Homo sapiens)
# Construct: PDE2 was isolated from human platelets, provided by Etablissement Français du Sang-Alsace; tissue Etablissement Français du Sang-Alsace; host or cells: human platelets
# Sequence (O00408 whole entry): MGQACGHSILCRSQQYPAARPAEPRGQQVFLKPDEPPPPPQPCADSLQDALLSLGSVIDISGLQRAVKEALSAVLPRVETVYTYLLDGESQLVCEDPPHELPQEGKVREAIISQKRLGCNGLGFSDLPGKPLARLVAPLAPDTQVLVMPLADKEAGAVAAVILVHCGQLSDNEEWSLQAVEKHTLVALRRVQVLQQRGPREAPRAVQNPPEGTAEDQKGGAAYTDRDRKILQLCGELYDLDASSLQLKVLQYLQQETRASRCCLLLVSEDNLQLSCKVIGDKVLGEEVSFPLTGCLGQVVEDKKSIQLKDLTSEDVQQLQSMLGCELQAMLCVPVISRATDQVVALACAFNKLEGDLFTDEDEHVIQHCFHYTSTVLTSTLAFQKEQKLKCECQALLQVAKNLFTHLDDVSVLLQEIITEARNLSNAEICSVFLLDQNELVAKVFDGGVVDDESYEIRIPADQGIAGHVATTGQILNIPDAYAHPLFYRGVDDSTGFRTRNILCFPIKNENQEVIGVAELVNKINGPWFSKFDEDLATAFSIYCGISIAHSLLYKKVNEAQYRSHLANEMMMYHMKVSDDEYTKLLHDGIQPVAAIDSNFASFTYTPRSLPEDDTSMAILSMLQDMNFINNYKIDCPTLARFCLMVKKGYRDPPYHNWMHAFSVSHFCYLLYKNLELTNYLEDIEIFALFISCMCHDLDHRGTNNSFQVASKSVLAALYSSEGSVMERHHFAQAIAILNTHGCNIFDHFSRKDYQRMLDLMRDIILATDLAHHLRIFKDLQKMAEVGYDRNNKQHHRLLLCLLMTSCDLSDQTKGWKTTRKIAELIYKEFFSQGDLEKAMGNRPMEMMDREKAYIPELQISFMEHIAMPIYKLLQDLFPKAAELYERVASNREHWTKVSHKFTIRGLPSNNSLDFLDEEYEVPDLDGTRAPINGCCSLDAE
# EXPERIMENT_DESCRIPTION: Inhibition of PDE2 (radioenzymatic phosphodiesterase assay)
# Type: biochemical
# CONDITION_DESCRIPTION: Table 1; value in square brackets; 1 μM cyclic AMP; read-out: PDE2 IC50
Numbers only, as −log10 of the molar value.

# return pIC50 for each item in the list
1. COc1cc2c(c(OC)c1-c1ccccc1)C(c1cccc(C(N)=O)c1)=NCC(=O)N2C
2. COc1cc2c(c(OC)c1-c1ccc(Cl)cc1)C(c1cccc(C(N)=O)c1)=NCC(=O)N2C

[A]
[6.10, 6.52]
